Hello, the source for this data is ChEMBL document CHEMBL5257025, in case you need it.

System: Plasmodium falciparum
Assay: Antiplasmodial activity against Plasmodium falciparum NF54 assessed as reduction in malarial growth
Assay type: functional, organism-based
Assay endpoint: IC50 (µM)

{"columns": ["Compound", "Assay endpoint", "Value unit", "Measured result"],
 "data": [
  ["C[C@@H]1CC[C@H]2[C@@H](C)C(/C=C/c3cccc(/C=C/C4O[C@@H]5O[C@]6(C)CC[C@@H]7[C@@H](C)CC[C@H]([C@@H]4C)[C@]57OO6)c3)O[C@H]3O[C@@]4(C)CC[C@@H]1[C@]32OO4 (stereo partly drawn)", "IC50", "µM", 0.077],
  ["COc1cc(OC)c(C2O[C@H]3O[C@@]4(C)CC[C@H]5[C@H](C)CC[C@@H]([C@H]2C)[C@@]35OO4)cc1C1O[C@H]2O[C@@]3(C)CC[C@H]4[C@H](C)CC[C@@H]([C@H]1C)[C@@]24OO3 (stereo partly drawn)", "IC50", "µM", 0.0013],
  ["C[C@@H]1CC[C@H]2[C@@H](C)C(/C=C\\c3ccc(/C=C\\C4O[C@H]5O[C@@]6(C)CC[C@H]7[C@H](C)CC[C@@H]([C@H]4C)[C@@]57OO6)cc3)O[C@H]3O[C@@]4(C)CC[C@@H]1[C@]32OO4 (stereo partly drawn)", "IC50", "µM", 0.018],
  ["C[C@@H]1CC[C@H]2[C@@H](C)C(CC#Cc3cccc(C#CCC4O[C@H]5O[C@@]6(C)CC[C@H]7[C@H](C)CC[C@@H]([C@H]4C)[C@@]57OO6)c3)O[C@H]3O[C@@]4(C)CC[C@@H]1[C@]32OO4 (stereo partly drawn)", "IC50", "µM", 0.036],
  ["C[C@H]1[C@H](CCC(=O)c2ccc(C(=O)C[C@@H]3O[C@H]4O[C@@]5(C)CC[C@H]6[C@H](C)CC[C@@H]([C@H]3C)[C@@]46OO5)cc2)O[C@H]2O[C@@]3(C)CC[C@H]4[C@H](C)CC[C@@H]1[C@@]24OO3", "IC50", "µM", 0.0019],
  ["C=C(CC1O[C@H]2O[C@@]3(C)CC[C@H]4[C@H](C)CC[C@@H]([C@H]1C)[C@@]24OO3)CC1O[C@H]2O[C@@]3(C)CC[C@H]4[C@H](C)CC[C@@H]([C@H]1C)[C@@]24OO3 (stereo partly drawn)", "IC50", "µM", 0.024],
  ["C[C@@H]1CC[C@H]2[C@@H](C)C(/C=C\\c3cccc(/C=C/C4O[C@H]5O[C@@]6(C)CC[C@H]7[C@H](C)CC[C@@H]([C@H]4C)[C@@]57OO6)c3)O[C@H]3O[C@@]4(C)CC[C@@H]1[C@]32OO4 (stereo partly drawn)", "IC50", "µM", 0.035],
  ["C[C@@H]1CC[C@H]2[C@H](C[C@]3(CCCCc4ccccc4)O[C@H]4O[C@@]5(C)CC[C@H]6[C@H](C)CC[C@@H]([C@H]3C)[C@@]46OO5)C(=O)O[C@H]3O[C@@]4(C)CC[C@@H]1[C@]32OO4", "IC50", "µM", 0.0034]
]}

----------
System: Plasmodium falciparum
Assay: Antimalarial activity against Plasmodium falciparum HB3 assessed as inhibition of malarial growth
Assay type: functional, organism-based

{"columns": ["Compound", "Target desc", "IC50, nM"],
 "data": [
  ["C[C@@H]1CC[C@H]2[C@@H](C)C(CCOC(=O)c3ccccc3C(=O)OCCC3O[C@H]4O[C@@]5(C)CC[C@H]6[C@H](C)CC[C@@H]([C@H]3C)[C@@]46OO5)O[C@H]3O[C@@]4(C)CC[C@@H]1[C@]32OO4 (some centres undefined)", "Plasmodium falciparum", 1.6],
  ["C[C@@H]1CC[C@H]2[C@@H](C)C(CCOC(=O)CCC(=O)OCCC3O[C@H]4O[C@@]5(C)CC[C@H]6[C@H](C)CC[C@@H]([C@H]3C)[C@@]46OO5)O[C@H]3O[C@@]4(C)CC[C@@H]1[C@]32OO4 (some centres undefined)", "Plasmodium falciparum", 1.4],
  ["C[C@@H]1CC[C@H]2[C@@H](C)C(CCOCc3ccccc3COCCC3O[C@H]4O[C@@]5(C)CC[C@H]6[C@H](C)CC[C@@H]([C@H]3C)[C@@]46OO5)O[C@H]3O[C@@]4(C)CC[C@@H]1[C@]32OO4 (some centres undefined)", "Plasmodium falciparum", 1.3],
  ["C[C@@H]1CC[C@H]2[C@@H](C)C(CCOC(=O)CCCC(=O)OCCC3O[C@H]4O[C@@]5(C)CC[C@H]6[C@H](C)CC[C@@H]([C@H]3C)[C@@]46OO5)O[C@H]3O[C@@]4(C)CC[C@@H]1[C@]32OO4 (some centres undefined)", "Plasmodium falciparum", 1.1]
]}
